Below is a list of entries, each paired with its recorded MIC value.
system: Morganella morganii; assay: Compound was tested for antibacterial activity against Morganella morganii; format: functional
measuredParameter: MIC

INSERT INTO results (smilesrecord, experimentalresult) VALUES
  ('CSCC[C@H](N)C(=O)N[C@@H](CCl)C(=O)O', '50 µg/mL'),
  ('CSCC[C@H](N)C(=O)N[C@@H](CCl)C(=O)N[C@@H](CCl)C(=O)O', '> 100 µg/mL'),
  ('CCCC[C@H](N)C(=O)N[C@@H](CCl)C(=O)O', '> 100 µg/mL'),
  ('NCC(=O)N[C@@H](CCl)C(=O)O', '> 100 µg/mL'),
  ('CSCC[C@H](N)C(=O)N[C@@H](C)C(=O)N[C@@H](CCl)C(=O)O', '> 100 µg/mL'),
  ('CC[C@H](N)C(=O)N[C@@H](CCl)C(=O)O', '50 µg/mL');

###

Listing of recorded MIC by entry.
test system: Enterococcus faecalis; assay: Compound was tested for antibacterial activity against Streptococcus faecalis; format: functional
measuredParameter: MIC

INSERT INTO measurements (smilesrecord, experimentalresult) VALUES
  ('NC(=O)CC[C@H](N)C(=O)N[C@@H](CCl)C(=O)O', '0.78 µg/mL'),
  ('CSCC[C@H](N)C(=O)N[C@@H](C)C(=O)N[C@@H](CCl)C(=O)O', '6.25 µg/mL'),
  ('NCCC(=O)N[C@@H](CCl)C(=O)O', '> 100 µg/mL'),
  ('N[C@@H](CCl)C(=O)N[C@@H](CCl)C(=O)N[C@@H](CCl)C(=O)O', '< 0.1 µg/mL'),
  ('CC(C)C[C@H](N)C(=O)N[C@@H](CCl)C(=O)O', '< 0.1 µg/mL'),
  ('NCC(=O)N[C@@H](CCl)C(=O)O', '> 100 µg/mL'),
  ('CC(C)[C@H](N)C(=O)N[C@@H](C)C(=O)N[C@@H](CCl)C(=O)O', '> 100 µg/mL'),
  ('CN[C@@H](C)C(=O)N[C@@H](CCl)C(=O)O', '100 µg/mL'),
  ('N[C@@H](Cc1ccccc1)C(=O)N[C@@H](CCl)C(=O)O', '0.39 µg/mL'),
  ('CSCC[C@H](N)C(=O)N[C@@H](CCl)C(=O)N[C@@H](CCl)C(=O)O', '0.05 µg/mL'),
  ('CC[C@H](C)[C@H](N)C(=O)N[C@@H](CCl)C(=O)O', '< 0.1 µg/mL'),
  ('O=C(O)[C@H](CCl)NC(=O)[C@@H]1CCCN1', '< 0.1 µg/mL'),
  ('CC(C)[C@H](N)C(=O)N[C@@H](CCl)C(=O)O', '< 0.1 µg/mL'),
  ('C[C@H](N)C(=O)N[C@@H](C)C(=O)N[C@@H](CCl)C(=O)O', '> 100 µg/mL'),
  ('CCCC[C@H](N)C(=O)N[C@@H](CCl)C(=O)O', '3.12 µg/mL'),
  ('CC[C@H](N)C(=O)N[C@@H](CCl)C(=O)O', '6.25 µg/mL');

###

test system: Escherichia coli; assay: Compound was tested for antibacterial activity against Escherichia coli; format: functional
measuredParameter: MIC (µg/mL)

INSERT INTO results (smilesrecord, studysystem, measuredparameter, relationoperator, experimentalresult) VALUES
  ('O=C(O)[C@H](CCl)NC(=O)[C@@H]1CCCN1', 'Escherichia coli', 'MIC', '=', 6.25),
  ('CC(C)C[C@H](N)C(=O)N[C@@H](CCl)C(=O)O', 'Escherichia coli', 'MIC', '=', 3.12),
  ('CC(C)[C@H](N)C(=O)N[C@@H](C)C(=O)N[C@@H](CCl)C(=O)O', 'Escherichia coli', 'MIC', '>', 100),
  ('NCCC(=O)N[C@@H](CCl)C(=O)O', 'Escherichia coli', 'MIC', '>', 100),
  ('CC(C)[C@H](N)C(=O)N[C@@H](CCl)C(=O)O', 'Escherichia coli', 'MIC', '=', 1.56),
  ('N[C@@H](CCl)C(=O)N[C@@H](CCl)C(=O)O', 'Escherichia coli', 'MIC', '=', 12.5),
  ('CSCC[C@H](N)C(=O)N[C@@H](CCl)C(=O)N[C@@H](CCl)C(=O)O', 'Escherichia coli', 'MIC', '=', 1.56),
  ('N[C@@H](CCl)C(=O)N[C@@H](CCl)C(=O)N[C@@H](CCl)C(=O)O', 'Escherichia coli', 'MIC', '=', 25),
  ('CC[C@H](C)[C@H](N)C(=O)N[C@@H](CCl)C(=O)O', 'Escherichia coli', 'MIC', '=', 3.12),
  ('NC(=O)CC[C@H](N)C(=O)N[C@@H](CCl)C(=O)O', 'Escherichia coli', 'MIC', '=', 1.56),
  ('NCC(=O)N[C@@H](CCl)C(=O)O', 'Escherichia coli', 'MIC', '=', 3.12);

Ref: ChEMBL document CHEMBL1123250
